biological target: C-C chemokine receptor type 5 (Homo sapiens, UniProt P51681); test: Inhibition of [125I]-MIP-1 alpha binding to human CCR5 receptor expressed in Chinese hamster ovary (CHO) cells
Sequence (P51681 whole entry): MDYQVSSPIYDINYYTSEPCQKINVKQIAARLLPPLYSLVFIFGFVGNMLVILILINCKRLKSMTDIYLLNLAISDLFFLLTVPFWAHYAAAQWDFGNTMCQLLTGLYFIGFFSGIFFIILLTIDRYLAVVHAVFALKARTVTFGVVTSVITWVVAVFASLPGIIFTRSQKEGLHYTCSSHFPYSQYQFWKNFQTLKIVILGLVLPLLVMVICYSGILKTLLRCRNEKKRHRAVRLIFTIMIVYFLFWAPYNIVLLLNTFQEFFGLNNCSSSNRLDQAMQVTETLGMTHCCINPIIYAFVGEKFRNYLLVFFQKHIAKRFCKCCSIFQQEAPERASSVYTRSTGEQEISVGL
The entries below come with measured pIC50 values attached.
Value format note: pIC50 is -log10 of concentration (mol/L); just state the number.

Example compounds with recorded pIC50:
Compound	pIC50
COC(=O)N(CC1CCCCC1)C1CCN(CC[C@H](CN(C)S(=O)(=O)c2ccccc2)c2ccccc2)CC1	8.22
CCCN(C(=O)N(C)Cc1ccccc1)C1CCN(CCC(CN(C)S(=O)(=O)c2ccccc2)c2ccccc2)CC1 (stereo unspecified)	7.70
CCCN(C(=O)Nc1ccccc1)C1CCN(CCC(CN(C)S(=O)(=O)c2ccccc2)c2ccccc2)CC1 (stereo unspecified)	8.40
CNC(=O)NC1CCN(CCC(CN(C)S(=O)(=O)c2ccccc2)c2ccccc2)CC1 (stereo unspecified)	6.00

Enquiry: If you can, please state the reported pIC50 value of CCCN(C(=O)OCc1ccccc1)C1CCN(CC[C@H](CN(C)S(=O)(=O)c2ccccc2)c2cccc(Cl)c2)CC1 .
Return: 8.40

Enquiry: Need pIC50 of CCN(C(=O)Oc1ccccc1)C1CCN(CC[C@H](CN(C)S(=O)(=O)c2ccccc2)c2ccccc2)CC1 , thanks.
Return: 8.00
